Target entity: Mitogen-activated protein kinase 14 (Homo sapiens)
Test settings: at 1 µM
Assay metric: residual activity (%)

- Entry smiles: "O=C1NC(=O)c2c1c1c3ccccc3[nH]c1c1[nH]c3cc(Br)ccc3c21"
  Assay metric: "residual activity"
  Observed measurement: 93
- Entry smiles: "CN(C)c1ccc(/C=C2\\C(=O)Nc3ccccc32)cc1"
  Assay metric: "residual activity"
  Observed measurement: 102
- Entry smiles: "CC#CC(=O)Nc1cc2c(Nc3ccc(F)c(Cl)c3)ncnc2cn1"
  Assay metric: "residual activity"
  Observed measurement: 91
- Entry smiles: "N#C/C(=C(\\N)Sc1ccc(N)cc1)c1ccccc1C(F)(F)F"
  Assay metric: "residual activity"
  Observed measurement: 87
- Entry smiles: "O=C1NC(=O)/C(=C/c2ccc3c(c2)OC(F)(F)O3)S1"
  Assay metric: "residual activity"
  Observed measurement: 99
- Entry smiles: "Cn1cnc2cc3c(Nc4cccc(Br)c4)ncnc3cc21"
  Assay metric: "residual activity"
  Observed measurement: 64
